experiment: resazurin metabolic signal in HepG2 cells – cell-based, resazurin fluorescence, 24 h, PK04 Diversity Set, profiling panel (AID 1172); conditions: HepG2 viability, higher = more signal; also: test concentration not given here

COMPOUND: CCOC(=O)N1C(c2ccc(OCCCO)cc2)=NC(C(=O)OC)N1C(=O)OCC (centres undefined)
z-score: 0.33

COMPOUND: O=C1OCC=C[C@H]2OC34C=CCN(c5ccc(Cl)cc5)C(=O)[C@H]3N(CCCO)C(=O)[C@@H]4[C@@H]12 (some centres undefined)
z-score: -0.458

COMPOUND: COC(=O)[C@@]1(Cc2ccc(OC)cc2)[C@H]2c3cc(C(=O)N4CCCC4)n(CCN4CCOCC4)c3C[C@H]2CN1C(=O)c1ccccc1
z-score: 0.142

COMPOUND: C=CCN1C(=O)[C@@]2(O[C@@H](CCO)[C@H]([Si](C)(C)c3ccc(OC)cc3)[C@H]2C)c2cc(NC(C)=O)ccc21
z-score: -0.865
